Assay: Stability (cleavage to parent drug) of prodrug suspensions in PBS pH 7.4
Type: physicochemical
Details: PBS pH 7.4, 37° C.; calculated from k0 and Sprodrug
Task for the reader: assign each of the following compounds its reported estimated pseudo first-order rate constant (khyd) for cleavage.
Report only the number, with the unit day⁻¹ understood.

Exercise: Param item = O=C(Cc1ccccc1Nc1c(Cl)cccc1Cl)OCCn1ccnc1-c1ccccc1 [DPX-1-0007] ; retrieve measured estimated pseudo first-order rate constant (khyd) for cleavage.
Key: 0.0029

Exercise: Param item = COc1ccc2cc(C(C)C(=O)OCCc3ccccn3)ccc2c1 (stereo not drawn) [DPX-2-0004] ; retrieve measured estimated pseudo first-order rate constant (khyd) for cleavage.
Key: 0.033

Exercise: Param item = O=C(Cc1ccccc1Nc1c(Cl)cccc1Cl)OCCn1cnc2ccccc21 [DPX-1-0006] ; retrieve measured estimated pseudo first-order rate constant (khyd) for cleavage.
Key: 0.17

Exercise: Param item = COc1ccc2cc(C(C)C(=O)OCCn3cnc4ccccc43)ccc2c1 (stereo not drawn) [DPX-2-0006] ; retrieve measured estimated pseudo first-order rate constant (khyd) for cleavage.
Key: 0.066

Exercise: Param item = O=C(Cc1ccccc1Nc1c(Cl)cccc1Cl)OCCc1ccccn1 [DPX-1-0004] ; retrieve measured estimated pseudo first-order rate constant (khyd) for cleavage.
Key: 0.15

Exercise: Param item = COc1ccc2cc(C(C)C(=O)OCCn3ccnc3-c3ccccc3)ccc2c1 (stereo not drawn) [DPX-2-0007] ; retrieve measured estimated pseudo first-order rate constant (khyd) for cleavage.
Key: 0.065

====

Assay: Solubility of DPX-2-0006 at pH 3 in the presence of N,N-dimethyl acetamide (DMA)
Type: physicochemical
Conditions: acidified demineralized water with 15% (v/v) DMA, aqueous with cosolvent or surfactant or cyclodextrin, thermodynamic from solid; acidic suspension (pH 3), 15% (v/v) DMA, 37° C.; read-out: solubility in the presence of 15% (v/v) DMA
observed property: solubility (µg/mL)
Report only the number, with the unit µg/mL understood.

Exercise: Param item = COc1ccc2cc(C(C)C(=O)OCCn3cnc4ccccc43)ccc2c1 (stereo not shown) ; retrieve measured solubility.
Key: 350

====

Assay: Solubility of DPX-2-0006 at pH 3 in the presence of N,N-dimethyl acetamide (DMA)
Assay type: physicochemical
Conditions: acidified demineralized water with 30% (v/v) DMA, aqueous with cosolvent or surfactant or cyclodextrin, thermodynamic from solid; acidic suspension (pH 3), 30% (v/v) DMA, 37° C.; read-out: solubility in the presence of 30% (v/v) DMA
observed property: solubility (µg/mL)
Report only the number, with the unit µg/mL understood.

Exercise: Param item = COc1ccc2cc(C(C)C(=O)OCCn3cnc4ccccc43)ccc2c1 (stereo not shown) [DPX-2-0006] ; retrieve measured solubility.
Key: 570

====

Experiment: Solubility of DPX-2-0006 at pH 3 in the presence of N,N-dimethyl acetamide (DMA)
Type: physicochemical
Conditions: acidified demineralized water with 5% (v/v) DMA, aqueous with cosolvent or surfactant or cyclodextrin, thermodynamic from solid; acidic suspension (pH 3), 5% (v/v) DMA, 37° C.; read-out: solubility in the presence of 5% (v/v) DMA
observed property: solubility (µg/mL)
Report only the number, with the unit µg/mL understood.

Exercise: Param item = COc1ccc2cc(C(C)C(=O)OCCn3cnc4ccccc43)ccc2c1 (stereo not shown) ; retrieve measured solubility.
Key: 250

====

Assay: Stability (cleavage to parent drug) of prodrug suspensions in PBS pH 7.4
Type: physicochemical
Conditions: appearance of parent drug from suspension in PBS pH 7.4, 37° C.
observed property: apparent pseudo-zero-order rate constant (k0) (M/day)
Report only the number, with the unit M/day understood.

Exercise: Param item = COc1ccc2cc(C(C)C(=O)OCCn3cnc4ccccc43)ccc2c1 (stereo not drawn) [DPX-2-0006] ; retrieve measured apparent pseudo-zero-order rate constant (k0).
Key: 1e-06

Exercise: Param item = O=C(Cc1ccccc1Nc1c(Cl)cccc1Cl)OCCn1ccnc1-c1ccccc1 [DPX-1-0007] ; retrieve measured apparent pseudo-zero-order rate constant (k0).
Key: 2.5e-07

Exercise: Param item = COc1ccc2cc(C(C)C(=O)OCCc3ccccn3)ccc2c1 (stereo not drawn) [DPX-2-0004] ; retrieve measured apparent pseudo-zero-order rate constant (k0).
Key: 1.7e-06

Exercise: Param item = COc1ccc2cc(C(C)C(=O)OCCn3ccnc3-c3ccccc3)ccc2c1 (stereo not drawn) [DPX-2-0007] ; retrieve measured apparent pseudo-zero-order rate constant (k0).
Key: 1e-06

Exercise: Param item = O=C(Cc1ccccc1Nc1c(Cl)cccc1Cl)OCCc1ccccn1 [DPX-1-0004] ; retrieve measured apparent pseudo-zero-order rate constant (k0).
Key: 1.1e-06

Exercise: Param item = O=C(Cc1ccccc1Nc1c(Cl)cccc1Cl)OCCn1cnc2ccccc21 [DPX-1-0006] ; retrieve measured apparent pseudo-zero-order rate constant (k0).
Key: 2.4e-06

====

Assay: Solubility of DPX-2-0006 at pH 3 in the presence of N,N-dimethyl acetamide (DMA)
Assay type: physicochemical
Conditions: acidified demineralized water with 50% (v/v) DMA, aqueous with cosolvent or surfactant or cyclodextrin, thermodynamic from solid; acidic suspension (pH 3), 50% (v/v) DMA, 37° C.; read-out: solubility in the presence of 50% (v/v) DMA
Description: A suspension of DPX-2-0006 was formed by adding 10 mg to 3 mL demineralized water, 0.05 mL 0.100 M HCl was added to obtain a pH of 3. After rotation of the suspension at 37° C. for 1 days, 0.5 mL sample was taken and after filtration (disposable syringe filters), the solution was diluted in methanol:water 1:1 and analyzed immediately by HPLC for prodrug. […] The HPLC method described in Example 29 was applied and the retention time of DPX-2-0006 was 14 min, respectively. […]
observed property: solubility (µg/mL)
Report only the number, with the unit µg/mL understood.

Exercise: Param item = COc1ccc2cc(C(C)C(=O)OCCn3cnc4ccccc43)ccc2c1 (stereo not shown) ; retrieve measured solubility.
Key: 2250

These measurements were taken from patent US9937262B2.
